# test.target: Human Cav3.2 Channels (Homo sapiens, UniProt O95180)
# Construct: expressed in transfected cells
# Sequence (O95180 whole entry): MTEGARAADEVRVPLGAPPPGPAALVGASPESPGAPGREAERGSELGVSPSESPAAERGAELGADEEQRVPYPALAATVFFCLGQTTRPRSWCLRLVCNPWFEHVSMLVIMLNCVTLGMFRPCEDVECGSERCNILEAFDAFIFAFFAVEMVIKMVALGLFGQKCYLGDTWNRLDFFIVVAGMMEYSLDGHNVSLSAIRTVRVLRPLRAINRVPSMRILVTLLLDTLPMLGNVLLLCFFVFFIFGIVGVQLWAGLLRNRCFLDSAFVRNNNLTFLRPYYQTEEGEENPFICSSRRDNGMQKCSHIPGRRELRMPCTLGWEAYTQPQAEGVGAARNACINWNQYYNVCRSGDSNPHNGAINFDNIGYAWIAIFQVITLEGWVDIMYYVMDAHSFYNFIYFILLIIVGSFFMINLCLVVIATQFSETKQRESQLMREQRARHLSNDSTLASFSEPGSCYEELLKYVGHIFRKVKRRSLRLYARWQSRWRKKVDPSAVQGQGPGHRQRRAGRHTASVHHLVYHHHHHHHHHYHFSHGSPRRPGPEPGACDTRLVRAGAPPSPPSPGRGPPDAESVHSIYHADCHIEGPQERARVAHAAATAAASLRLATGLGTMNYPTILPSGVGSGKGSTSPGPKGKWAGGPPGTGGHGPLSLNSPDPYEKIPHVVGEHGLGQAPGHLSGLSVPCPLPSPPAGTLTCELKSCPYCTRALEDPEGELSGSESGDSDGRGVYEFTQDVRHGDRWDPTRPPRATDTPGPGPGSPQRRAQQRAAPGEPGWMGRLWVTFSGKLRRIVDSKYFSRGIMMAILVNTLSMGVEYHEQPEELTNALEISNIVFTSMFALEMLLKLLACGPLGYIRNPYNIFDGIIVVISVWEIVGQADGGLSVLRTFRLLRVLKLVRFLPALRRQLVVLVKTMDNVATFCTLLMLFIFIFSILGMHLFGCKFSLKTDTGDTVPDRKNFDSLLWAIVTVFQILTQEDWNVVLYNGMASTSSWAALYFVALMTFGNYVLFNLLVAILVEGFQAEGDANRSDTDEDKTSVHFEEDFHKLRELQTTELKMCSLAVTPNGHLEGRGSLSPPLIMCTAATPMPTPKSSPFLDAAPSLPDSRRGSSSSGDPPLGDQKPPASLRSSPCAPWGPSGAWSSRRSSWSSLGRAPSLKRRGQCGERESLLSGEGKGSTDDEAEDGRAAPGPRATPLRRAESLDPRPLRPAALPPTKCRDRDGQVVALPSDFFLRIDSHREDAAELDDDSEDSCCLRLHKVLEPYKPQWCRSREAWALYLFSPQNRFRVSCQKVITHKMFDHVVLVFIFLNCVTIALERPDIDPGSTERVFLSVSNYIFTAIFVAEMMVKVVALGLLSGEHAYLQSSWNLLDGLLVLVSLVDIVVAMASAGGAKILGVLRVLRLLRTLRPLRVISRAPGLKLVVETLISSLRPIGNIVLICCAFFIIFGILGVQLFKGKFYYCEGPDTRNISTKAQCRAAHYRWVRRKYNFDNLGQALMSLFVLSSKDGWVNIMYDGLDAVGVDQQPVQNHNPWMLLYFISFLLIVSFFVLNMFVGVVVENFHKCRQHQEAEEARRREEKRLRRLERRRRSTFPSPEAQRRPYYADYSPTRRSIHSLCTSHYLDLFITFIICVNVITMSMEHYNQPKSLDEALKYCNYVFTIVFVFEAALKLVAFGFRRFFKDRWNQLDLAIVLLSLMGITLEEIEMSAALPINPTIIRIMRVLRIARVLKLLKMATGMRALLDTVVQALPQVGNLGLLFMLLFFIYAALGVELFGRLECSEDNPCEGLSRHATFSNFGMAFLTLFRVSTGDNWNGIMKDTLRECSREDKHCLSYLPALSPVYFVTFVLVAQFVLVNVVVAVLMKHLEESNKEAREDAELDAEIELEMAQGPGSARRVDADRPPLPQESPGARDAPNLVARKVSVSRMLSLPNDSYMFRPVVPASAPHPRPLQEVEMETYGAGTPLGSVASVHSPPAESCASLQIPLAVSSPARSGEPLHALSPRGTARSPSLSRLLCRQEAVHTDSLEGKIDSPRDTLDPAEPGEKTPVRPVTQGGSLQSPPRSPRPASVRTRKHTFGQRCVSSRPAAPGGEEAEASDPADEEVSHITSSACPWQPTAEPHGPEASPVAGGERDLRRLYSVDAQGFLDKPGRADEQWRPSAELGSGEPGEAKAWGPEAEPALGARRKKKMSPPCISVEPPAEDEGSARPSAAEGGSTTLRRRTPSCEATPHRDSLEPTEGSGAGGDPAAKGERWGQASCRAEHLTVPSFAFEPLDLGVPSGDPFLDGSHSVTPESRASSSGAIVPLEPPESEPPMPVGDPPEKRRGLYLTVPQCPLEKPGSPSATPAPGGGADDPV
# protocol.text: Electrophysiologic (whole-cell patch-clamp) assessment of calcium channel activity in HEK293 cells stably expressing hCav3.2
# Assay type: cell-based
# condition.summary: −77 mV, geometric mean, read-out: Human Cav3.2 −77 mV IC50 (μM) GeoMean
property: IC50 (µM)

chemical.smiles: O=C(NCCc1ccc(F)cc1)c1cccc(S(=O)(=O)N2CCN3CCC[C@H]3C2)c1
test.target: Human Cav3.2 Channels (Homo sapiens, UniProt O95180)
recorded.measurement: 4.1
--
chemical.smiles: O=C(c1cccc(S(=O)(=O)N2CCN(C(c3ccc(F)cc3)c3ccc(F)cc3)CC2)c1)N1CCN2CCC[C@@H]2C1
test.target: Human Cav3.2 Channels (Homo sapiens, UniProt O95180)
recorded.measurement: 1.4

(I) O=C(c1cccc(S(=O)(=O)Nc2ccc(C(F)(F)F)cc2)c1)N1CCC(N2CCCCC2)CC1
(II) O=C(c1cccc(S(=O)(=O)Nc2cccc(F)c2)c1)N1CCN2CCC[C@@H]2C1
Smaller IC50 value? Options are I and II // caller expects the label of the chosen entry I

----------
# test.target: Human Cav3.2 Channels (Homo sapiens)
# Construct: expressed in transfected cells
# protocol.text: Electrophysiologic (whole-cell patch-clamp) assessment of calcium channel activity in HEK293 cells stably expressing hCav3.2
# Type: cell-based
# condition.summary: −77 mV, geometric mean, read-out: Human Cav3.2 −77 mV IC50 (μM) GeoMean
property: IC50 (µM)

compound: O=C(c1cccc(S(=O)(=O)Nc2cccc(F)c2)c1)N1CCC(N2CCCC2)CC1 [Example 44]
recorded.measurement: 4.9

(A) O=C(c1cccc(S(=O)(=O)N2CCN(C(c3ccccc3)c3ccccc3)CC2)c1)N1CCN2CCC[C@@H]2C1 [Example 24]
(B) O=C(c1cc(S(=O)(=O)Nc2ccccc2F)c(Cl)cc1Cl)N1CCN2CCC[C@@H]2C1 [Example 64]
(C) O=C(c1cccc(S(=O)(=O)Nc2c(F)cccc2F)c1)N1CCN2CCC[C@@H]2C1 [Example 13]
Rank ascending by IC50. Please write the labels in the order that was asked for. A, B, C
(A: 1 µM, B: 1.7 µM, C: 5.6 µM)

----------
# test.target: Human Cav3.2 Channels (Homo sapiens, UniProt O95180)
# Construct: expressed in transfected cells
# protocol.text: Electrophysiologic (whole-cell patch-clamp) assessment of calcium channel activity in HEK293 cells stably expressing hCav3.2
# Format: cell-based
# condition.summary: −77 mV, geometric mean, read-out: Human Cav3.2 −77 mV IC50 (μM) GeoMean
property: IC50 (µM)

(P) O=C(c1cccc(S(=O)(=O)N2CCN3CCC[C@H]3C2)c1)N1CCN(C(c2ccccc2)c2ccccc2)CC1 [Example 54]
(Q) O=C(c1cc(S(=O)(=O)NC(c2ccccc2)c2ccccc2)c(F)cc1Cl)N1CCN2CCC[C@@H]2C1 [Example 74]
Smaller IC50 value? Options are P and Q // caller expects the label of the chosen entry P
(P: 1.2 µM, Q: 2 µM)

----------
# test.target: Human Cav3.2 Channels (Homo sapiens)
# Construct: expressed in transfected cells
# protocol.text: Electrophysiologic (whole-cell patch-clamp) assessment of calcium channel activity in HEK293 cells stably expressing hCav3.2
# Type: cell-based
# condition.summary: −77 mV, geometric mean, read-out: Human Cav3.2 −77 mV IC50 (μM) GeoMean
property: IC50 (µM)

Past entries and their recorded results:
chemical.smiles: O=C(c1cccc(S(=O)(=O)NCC(c2ccccc2)c2ccccc2)c1)N1CCN2CCC[C@@H]2C1
result.unit: µM
IC50: 1.5
//
chemical.smiles: O=C(c1cccc(S(=O)(=O)NCCC(c2ccccc2)c2ccccc2)c1)N1CCN2CCC[C@H]2C1
result.unit: µM
IC50: 1.8
//
chemical.smiles: O=C(Nc1cc(C(=O)N2CCN3CCC[C@@H]3C2)ccc1F)c1cc(Cl)cc(Cl)c1
result.unit: µM
IC50: 1.8

(I) O=C(c1cccc(S(=O)(=O)NCCc2ccc(F)cc2)c1)N1CCN2CCC[C@H]2C1
(II) O=C(c1cccc(S(=O)(=O)Nc2ccc(C(F)(F)F)cc2)c1)N1CCN2CCC[C@H]2C1
Smaller IC50 value? Options are I and II // caller expects the label of the chosen entry II
(II: 2.1 µM, I: 5.7 µM)

(1) O=C(c1cc(S(=O)(=O)Nc2ccccc2F)c(F)cc1Cl)N1CCN2CCC[C@H]2C1
(2) O=C(c1cccc(S(=O)(=O)Nc2cccc(F)c2F)c1)N1CCN2CCC[C@H]2C1
(3) O=C(c1cccc(S(=O)(=O)Nc2ccccc2C(F)(F)F)c1)N1CCN2CCC[C@H]2C1
(4) O=C(c1cccc(S(=O)(=O)N2CCN3CCC[C@@H]3C2)c1)N1CCN(C(c2ccc(F)cc2)c2ccc(F)cc2)CC1
Rank ascending by IC50. Please write the labels in the order that was asked for. 4, 3, 1, 2
